Target: BRD2 (Homo sapiens)
Construct: HiBiT, is appended to the N-terminus of endogenous BRD2, BRD3, and BRD4; endogenous in cells
Sequence (P25440 whole entry): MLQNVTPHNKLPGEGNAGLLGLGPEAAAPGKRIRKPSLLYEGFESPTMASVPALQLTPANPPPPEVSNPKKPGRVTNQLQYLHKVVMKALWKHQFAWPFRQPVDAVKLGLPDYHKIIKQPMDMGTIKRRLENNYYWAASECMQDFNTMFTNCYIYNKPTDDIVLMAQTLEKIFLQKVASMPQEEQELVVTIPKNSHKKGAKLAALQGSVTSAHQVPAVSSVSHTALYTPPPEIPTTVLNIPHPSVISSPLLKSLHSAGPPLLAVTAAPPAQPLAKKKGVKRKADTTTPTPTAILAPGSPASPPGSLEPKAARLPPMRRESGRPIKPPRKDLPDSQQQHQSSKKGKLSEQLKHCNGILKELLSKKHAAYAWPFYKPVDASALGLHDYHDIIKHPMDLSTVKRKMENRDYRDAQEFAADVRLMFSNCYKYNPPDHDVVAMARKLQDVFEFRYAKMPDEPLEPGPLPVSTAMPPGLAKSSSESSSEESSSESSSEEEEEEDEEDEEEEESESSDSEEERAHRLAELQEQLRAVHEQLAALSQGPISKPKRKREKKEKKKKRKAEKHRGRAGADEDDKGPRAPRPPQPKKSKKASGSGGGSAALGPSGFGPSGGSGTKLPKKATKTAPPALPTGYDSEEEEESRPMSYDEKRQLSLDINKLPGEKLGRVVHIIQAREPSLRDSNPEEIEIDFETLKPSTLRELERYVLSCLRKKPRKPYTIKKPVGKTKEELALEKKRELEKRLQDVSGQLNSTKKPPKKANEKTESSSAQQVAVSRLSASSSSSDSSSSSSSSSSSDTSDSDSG
Assay: Live cell kinetic HiBiT degradation assay, HiBiT-BRD2 HEK293 cells
Format: cell-based
Settings: HiBiT-BRD2 CRISPR knock-in HEK293 cells, live cell kinetic degradation, 24 h; read-out: Dmax 50 BRD2
quantityName: DC50 (nM)
Answers are plain numbers, in nM.

Would you mind listing DC50 for each of the following compounds?
1. Cc1ncsc1-c1ccc(CNC(=O)[C@@H]2C[C@@H](O)CN2C(=O)[C@@H](NC(=O)COCC(C)(COCCOCCOCCNc2cc3c(cc2F)C(=O)N(C2CCC(=O)NC2=O)C3=O)COCCOCCOCCOC(=O)C[C@@H]2N=C(c3ccc(Cl)cc3)c3c(sc(C)c3C)-n3c(C)nnc32)C(C)(C)C)cc1 (mixture of isomers) [AB3063 (26)]
2. Cc1ncsc1-c1ccc(CNC(=O)[C@@H]2C[C@@H](O)CN2C(=O)[C@@H](NC(=O)COCC(C)(COCCOCCOCCNC(=O)C[C@@H]2N=C(c3ccc(Cl)cc3)c3c(sc(C)c3C)-n3c(C)nnc32)COCCOCCOCCNc2cccc3c2C(=O)N(C2CCC(=O)NC2=O)C3=O)C(C)(C)C)cc1 (some centres unmarked) [MN666 (1)]

1. 4.7
2. 84

Hello, the source for this data is paper PMC11638965, in case you need it.
